ASSAY TEXT: qHTS of pediatric cancer cell lines to identify multiple opportunities for drug repurposing: Confirmatory screen for Saos-2 cells (AID 1347127); further: nearly all actives have a fitted effect of over 60% in size
CONDITIONS USED: Saos-2 osteosarcoma cell viability; series mostly up to 45.9 µM
Records with an inconclusive call do not appear. Calls of active or inactive are those of the source. The call rests on the fitted dose curve; in most records, active means well fitted cell-killing curve with a large enough effect; inconclusive means small, poorly fitted or top-dose-only effect, or effect the other way; inactive means no such curve, though single readings can be large or run the other way.
Outcome codes: yes = active, no = inactive

- SMILES REPRESENTATION: "Cc1cnc(Nc2ccc(F)cc2Cl)nc1-c1c[nH]c(C(=O)N[C@H](CO)c2cccc(Cl)c2)c1"
  ASSIGNED CLASS: "no"
- SMILES REPRESENTATION: "CNC(=O)c1c(F)cccc1Nc1nc(Nc2cc3c(cc2OC)CCN3C(=O)CN(C)C)nc2[nH]ccc12"
  ASSIGNED CLASS: "yes"
- SMILES REPRESENTATION: "CC(C)(O)c1cc2nc(-c3cnc(N)nc3)nc(N3CCOCC3)c2s1"
  ASSIGNED CLASS: "yes"

The reported numbers originate from PubChem BioAssay (NCATS).
